Target: T1, human TL1A extracellular domain with N-terminal HIS and FLAG tag (human, UniProt O95150 72-251)
T1 construct: the whole entry is named
T1 sequence: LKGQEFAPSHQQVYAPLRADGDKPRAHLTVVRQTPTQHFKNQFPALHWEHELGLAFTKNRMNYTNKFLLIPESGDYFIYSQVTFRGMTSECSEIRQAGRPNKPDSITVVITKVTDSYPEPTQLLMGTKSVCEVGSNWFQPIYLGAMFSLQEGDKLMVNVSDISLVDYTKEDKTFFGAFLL
Assay: SPR Run 4, purified Ab captured on Protein A, TL1A 5 ug/mL, timepoint 220
Endpoint label: TL1A Binding Level (Late) (RU)
Express your answer in RU, writing the number without its unit.

320-347 (antibody, human IgG1, name in Kabat numbering, V domains shown, human IgG1, lambda) VH: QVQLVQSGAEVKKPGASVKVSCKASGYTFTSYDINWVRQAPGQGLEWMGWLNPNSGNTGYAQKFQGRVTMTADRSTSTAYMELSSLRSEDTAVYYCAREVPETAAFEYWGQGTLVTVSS VL: QSVLTQPPSVSGAPGQRVTISCTSSSSDIGAGLGVHWYQQLPGTAPKLLIEGYYNRPSGVPDRFSGSKSGTSASLTITGLLPEDEGDYYCQSYDWTLSALFGGGTKLTVLG; 130
320-318 (antibody, human IgG1, name in Kabat numbering, V domains shown, human IgG1, lambda) VH: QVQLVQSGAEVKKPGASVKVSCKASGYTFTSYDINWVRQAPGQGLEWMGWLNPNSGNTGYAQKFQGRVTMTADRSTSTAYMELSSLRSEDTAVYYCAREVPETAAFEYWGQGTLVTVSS VL: QSVLTQPPSVSGAPGQRVTISCTSSSSDIGAGLGVHWYQQLPGTAPKLLIEGYYNRPSGVPDRFSGSKSGTSASLTITGLLPEDEGDYYCQAYDGTLSALFGGGTKLTVLG; 149

Now take the following binder into account.
Field TL1A Binding Level (Late) (entry 320-360 (antibody, human IgG1, name in Kabat numbering, V domains shown, human IgG1, lambda) VH: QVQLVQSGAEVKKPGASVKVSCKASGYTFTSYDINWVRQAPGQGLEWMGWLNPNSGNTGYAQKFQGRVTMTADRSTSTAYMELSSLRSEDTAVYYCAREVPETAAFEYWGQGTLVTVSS VL: QSVLTQPPSVSGAPGQRVTISCTSSSSDIGAGLGVHWYQQLPGTAPKLLIEGYYNRPSGVPDRFSGSKSGTSASLTITGLLPEDEGDYYCQSYDGTQSALFGGGTKLTVLG ) reads 53
